Target Or Test System: VirF (Shigella flexneri)
Sequence (P0A2T1 whole entry): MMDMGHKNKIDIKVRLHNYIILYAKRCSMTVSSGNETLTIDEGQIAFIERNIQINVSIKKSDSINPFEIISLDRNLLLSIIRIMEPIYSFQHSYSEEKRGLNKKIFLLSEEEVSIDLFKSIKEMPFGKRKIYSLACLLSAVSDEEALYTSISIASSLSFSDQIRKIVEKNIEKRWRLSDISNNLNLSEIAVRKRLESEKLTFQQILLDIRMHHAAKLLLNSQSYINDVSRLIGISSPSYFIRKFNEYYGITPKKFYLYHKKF
Measurement Notes: cell-based
Type: cell-based
Measurement Parameters: E. coli strain SME4382, virB-lacZ fusion, 1 mM IPTG, 3 hours at 37°C, 6.2% DMSO
Reported Property: VirF IC50

> print(dat)
                                   compound     target.or.test.system  reported.property          observed.value
1  CCCCCCCCC[N+](CC)(CC)CC.[Br-] [Entry 18, N,N,N-triethylnonan-1-aminium bromide]  VirF (Shigella flexneri)          VirF IC50  no inhibitory activity
2  CCCCN1c2ccccc2C=C(c2ccc3ccccc3n2)C1C (stereo not drawn)  VirF (Shigella flexneri)          VirF IC50           No inhibition
3        CCCCn1cc(-c2ccc3ccccc3n2)c2ccccc21  VirF (Shigella flexneri)          VirF IC50  no inhibitory activity
4  CCCCn1c2ccccc2c(=O)c2ccccc21 [Entry 15, 10-butylacridin-9(10H)-one]  VirF (Shigella flexneri)          VirF IC50  no inhibitory activity
5  CCCCN1C=C(c2ccc3ccccc3n2)C(c2ccccc2)c2ccccc21 (stereo not drawn)  VirF (Shigella flexneri)          VirF IC50           No inhibition

* * *

We begin with a simple list: items and their reported IC50.
Test system: control strain SME3359 (lacZ reporter under synthetic promoter repressed by LacI)
Measurement Notes: Control strain dose-response assay
Type: cell-based, E. coli
Measurement Parameters: Escherichia coli, 3 h, read-out: Control strain IC50
Reported Property: IC50

> print(dat)
                                   molecule                     target.or.test.system  observed.value
1  CCCC[n+]1cc(-c2ccc3ccccc3c2)cc2ccccc21 [Entry 23]  control strain SME3359 (lacZ reporter under synthetic promoter repressed by LacI)        > 100 µM
2  CCCCN1C=C(c2cccc(C)n2)C(C[N+](=O)[O-])c2ccccc21 (stereo not shown) [Entry 6]  control strain SME3359 (lacZ reporter under synthetic promoter repressed by LacI)        > 100 µM
3  CCCCCCCCC[n+]1ccccc1.[Br-] [Entry 17, 1-nonylpyridin-1-ium bromide]  control strain SME3359 (lacZ reporter under synthetic promoter repressed by LacI)         > 50 µM
4  CCCCN1C=C(c2cccc(Cl)c2)C(C[N+](=O)[O-])c2ccccc21 (stereo not shown) [Entry 7]  control strain SME3359 (lacZ reporter under synthetic promoter repressed by LacI)        > 100 µM
